Reported EC50 values follow for various molecules
targetSystem: Human M4 (Homo sapiens, UniProt P08173)
methodNotes: mAChR M4 cell-based functional assay (calcium flux, PAM mode)
runConditions: hM4-Gqi5 CHO-K1 cells; concentration-dependent increase in the EC20 acetylcholine response
Description: […] Calcium flux was measured using the Functional Drug Screening System (FDSS) 6000 or 7000 (Hamamatsu Corporation, Tokyo, Japan) as an increase in the fluorescent static ratio. […] Agonist activity was analyzed as a concentration-dependent increase in calcium mobilization upon compound addition. Positive allosteric modulator activity was analyzed as a concentration-dependent increase in the EC20 acetylcholine response. […]
readoutName: EC50

smilesrepr=[2H]C1(Oc2ccc3c(c2)OC([2H])([2H])C([2H])([2H])O3)CCN(c2nn3c(=O)cc(C)nc3c(C)c2C)CC1 readoutname=EC50 reported="30 nM"
smilesrepr=[2H]C1(Oc2ccc3c(c2)OC([2H])([2H])C([2H])([2H])O3)CCN(c2nn3c(=O)cc(C(C)C)nc3c(C)c2C)CC1 readoutname=EC50 reported="99 nM"
smilesrepr=[2H]C1(Oc2ccc3c(c2)OCO3)CCN(c2nn3c(=O)cc(C(F)F)nc3cc2C)CC1 readoutname=EC50 reported="17 nM"
smilesrepr=[2H]C1([2H])Oc2ccc(O[C@H]3CCN(c4nn5c(=O)ccnc5c(C)c4C)[C@H](C)C3)cc2OC1([2H])[2H] readoutname=EC50 reported="34 nM"
smilesrepr=COc1c(C)c(N2CCC(Oc3ccc4c(c3)OCCO4)CC2)nn2c(=O)ccnc12 readoutname=EC50 reported="421 nM"
smilesrepr=Cc1ccc(OC2CCN(c3nn4c(=O)cc(C)nc4cc3C)CC2)cn1 readoutname=EC50 reported="168 nM"
smilesrepr=Cc1cc2nccc(=O)n2nc1N1CC[C@@H](Oc2ccc3c(c2)CCO3)[C@H](F)C1 readoutname=EC50 reported="206 nM"
smilesrepr=[2H]C1([2H])Oc2ccc(O[C@H]3CCN(c4nn5c(=O)ccnc5c(C)c4C)C[C@@H]3F)cc2OC1([2H])[2H] readoutname=EC50 reported="326 nM"
smilesrepr=Cc1cc(=O)n2nc(N3CCC(Oc4ccc5c(c4)CCNC5=O)CC3)c(C)cc2n1 readoutname=EC50 reported="3340 nM"
smilesrepr=[2H]C1([2H])Oc2ccc(OC3CCN(c4nn5c(=O)cc(COC)nc5cc4C)CC3)cc2OC1([2H])[2H] readoutname=EC50 reported="22 nM"
smilesrepr=COCc1ncc(OC2CCN(c3nn4c(=O)ccnc4cc3C)CC2)cc1C readoutname=EC50 reported="> 10000 nM"
smilesrepr=Cc1cc2nccc(=O)n2nc1N1CCC(Oc2ccc(C(C)C)cc2)CC1 readoutname=EC50 reported="1110 nM"
smilesrepr=[2H]C1([2H])Oc2ccc(OC3CCN(c4nn5c(=O)cc(C(F)(F)F)nc5cc4C)CC3)cc2OC1([2H])[2H] readoutname=EC50 reported="16 nM"
smilesrepr=[2H]C1([2H])Oc2ccc(OC3CCN(c4cc(C)c5nccc(=O)n5n4)CC3)cc2OC1([2H])[2H] readoutname=EC50 reported="1800 nM"
smilesrepr=[2H]C1([2H])Oc2ccc(OC3CCN(c4nn5c(=O)cc(C)nc5c(C)c4C)CC3)cc2OC1([2H])[2H] readoutname=EC50 reported="36 nM"
smilesrepr=[2H]C1([2H])Oc2ccc(O[C@H]3CCN(c4nn5c(=O)ccnc5cc4C)C[C@H]3F)cc2OC1([2H])[2H] readoutname=EC50 reported="75 nM"
smilesrepr=Cc1ccc(OC2CCN(c3nn4c(=O)ccnc4c(C)c3C)CC2)cn1 readoutname=EC50 reported="341 nM"
smilesrepr=Cc1cc(=O)n2nc(N3CCC(Oc4ccc5c(c4)CCN(C)C5=O)CC3)c(C)cc2n1 readoutname=EC50 reported="2360 nM"
smilesrepr=COCc1ccc(OC2CCN(c3nn4c(=O)ccnc4cc3C)CC2)cn1 readoutname=EC50 reported="> 10000 nM"
smilesrepr=[2H]C1(Oc2ccc3c(c2)OC([2H])([2H])C([2H])([2H])O3)CCN(c2nn3c(=O)ccnc3c(COC)c2C)CC1 readoutname=EC50 reported="455 nM"
smilesrepr=[2H]C1(Oc2ccc3c(c2)OC([2H])([2H])C([2H])([2H])O3)CCN(c2nn3c(=O)cc(C)nc3cc2C)CC1 readoutname=EC50 reported="60 nM"
smilesrepr=[2H]C1([2H])Oc2ccc(OC3CCN(c4nn5c(=O)ccnc5c(C)c4COC)CC3)cc2OC1([2H])[2H] readoutname=EC50 reported="162 nM"
smilesrepr=Cc1ccc(OC2CCN(c3nn4c(=O)cc(C(F)F)nc4c(C)c3C)CC2)cc1 readoutname=EC50 reported="385 nM"
smilesrepr=[2H]C1(Oc2ccc3c(c2)OC([2H])([2H])C([2H])([2H])O3)CCN(c2nn3c(=O)cc(CC4CCCC4)nc3c(C)c2C)CC1 readoutname=EC50 reported="1470 nM"
smilesrepr=[2H]C1(Oc2ccc3c(c2)OC([2H])([2H])C([2H])([2H])O3)CCN(c2nn3c(=O)cc(COC)nc3c(C)c2C)CC1 readoutname=EC50 reported="44 nM"

* * *

Reported Emax at 30 µM values follow for various molecules
targetSystem: Human M4 (Homo sapiens)
Construct: expressed in transfected cells
methodNotes: mAChR M4 cell-based functional assay (calcium flux, PAM mode)
runConditions: CHO-K1, % ACh maximum at 30 μM; hM4-Gqi5 CHO-K1 cells
readoutName: Emax at 30 µM (%)

smilesrepr=[2H]C1([2H])Oc2cc(OC3CCN(c4nn5c(=O)c(Cl)cnc5cc4C)CC3)cc(C)c2OC1([2H])[2H] unittag=% reported=79
smilesrepr=[2H]C1([2H])Oc2ccc(O[C@@H]3CCN(c4nn5c(=O)ccnc5c(C)c4C)C[C@@H]3F)cc2OC1([2H])[2H] unittag=% reported=115
smilesrepr=Cc1cc(=O)n2nc(N3CCC(Oc4ccc5c(c4)CCN(C)C5=O)CC3)c(C)cc2n1 unittag=% reported=84
smilesrepr=[2H]C1([2H])Oc2cc(OC3CCN(c4nn5c(=O)ccnc5cc4C)CC3)cc(C)c2OC1([2H])[2H] unittag=% reported=93
smilesrepr=[2H]C1(Oc2ccc3c(c2)OC([2H])([2H])C([2H])([2H])O3)CCN(c2nn3c(=O)cc(C(F)(F)F)nc3cc2C)CC1 unittag=% reported=77
smilesrepr=[2H]C1([2H])Oc2ccc(OC3CCN(c4nn5c(=O)cc(CC)nc5c(C)c4C)CC3)cc2OC1([2H])[2H] unittag=% reported=89
smilesrepr=[2H]C1(Oc2ccc3c(c2)OC([2H])([2H])C([2H])([2H])O3)CCN(c2nn3c(=O)ccnc3c(C3CC3)c2C)CC1 unittag=% reported=78
smilesrepr=CCc1cc(=O)n2nc(N3CCC(Oc4ccc5c(c4)OCCO5)CC3)c(C)c(C)c2n1 unittag=% reported=99
smilesrepr=[2H]C1(Oc2ccc3c(c2)OC([2H])([2H])C([2H])([2H])O3)CCN(c2nn3c(=O)ccnc3c(C)c2C2CC2)CC1 unittag=% reported=87
smilesrepr=[2H]C1([2H])CC(Oc2ccc3c(c2)OC([2H])([2H])C([2H])([2H])O3)CC([2H])([2H])N1c1nn2c(=O)ccnc2cc1C unittag=% reported=105
smilesrepr=[2H]C1([2H])Oc2ccc(O[C@H]3CCN(c4nn5c(=O)cc(COC)nc5c(C)c4C)C[C@H]3F)cc2OC1([2H])[2H] unittag=% reported=111
smilesrepr=[2H]C1([2H])Oc2ccc(O[C@H]3CCN(c4nn5c(=O)ccnc5c(C)c4C)C[C@H]3F)cc2OC1([2H])[2H] unittag=% reported=114
smilesrepr=[2H]C1(Oc2ccc3c(c2)OC([2H])([2H])C([2H])([2H])O3)CCN(c2nn3c(=O)cc(C)nc3cc2C)CC1 unittag=% reported=118

* * *

targetSystem: Human M4 (Homo sapiens, UniProt P08173)
Sequence (P08173 1-479): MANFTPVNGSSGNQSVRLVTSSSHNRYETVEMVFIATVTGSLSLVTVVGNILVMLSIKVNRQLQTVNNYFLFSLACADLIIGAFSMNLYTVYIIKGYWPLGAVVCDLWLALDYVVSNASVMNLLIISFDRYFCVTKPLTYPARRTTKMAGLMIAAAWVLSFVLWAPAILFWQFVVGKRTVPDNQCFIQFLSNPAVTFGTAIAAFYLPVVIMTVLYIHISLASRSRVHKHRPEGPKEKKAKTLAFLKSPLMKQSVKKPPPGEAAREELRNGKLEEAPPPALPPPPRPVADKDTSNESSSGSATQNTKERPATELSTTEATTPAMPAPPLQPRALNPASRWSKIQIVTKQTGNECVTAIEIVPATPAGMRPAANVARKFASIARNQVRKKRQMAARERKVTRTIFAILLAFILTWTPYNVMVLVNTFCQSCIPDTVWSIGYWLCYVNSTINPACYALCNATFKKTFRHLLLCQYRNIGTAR
methodNotes: mAChR M4 cell-based functional assay (calcium flux, PAM mode)
runConditions: hM4-Gqi5 CHO-K1 cells; concentration-dependent increase in the EC20 acetylcholine response
Reported EC50 values follow for various compounds
readoutName: EC50 (nM)

compound=[2H]C1(Oc2ccc(C)cc2)CCN(c2nn3c(=O)ccnc3cc2C)CC1 reported=632
compound=COCc1cc(=O)n2nc(N3CCC(Oc4ccc5c(c4)OCCO5)CC3)c(C)c(C)c2n1 reported=22
compound=[2H]C1(Oc2ccc3c(c2)OC([2H])([2H])C([2H])([2H])O3)CCN(c2nn3c(=O)ccnc3cc2C)CC1 reported=115
compound=[2H]C1(Oc2ccc3c(c2)OCCCO3)CCN(c2nn3c(=O)cc(C(F)(F)F)nc3cc2C)CC1 reported=172
compound=Cc1c(N2CCC(Oc3ccc(F)cc3)CC2)nn2c(=O)ccnc2c1C reported=186
compound="Cc1cc2nccc(=O)n2nc1N1CC[C@@H](Oc2ccc3c(c2)OCCO3)[C@H](C)C1 (single isomer, unassigned)" reported=160
compound=[2H]C1([2H])Oc2ccc(OC3CCN(c4nn5c(=O)c(Cl)cnc5cc4C)CC3)cc2OC1([2H])[2H] reported=44
compound=[2H]C1([2H])Oc2ccc(OC3CCN(c4nn5c(=O)c(C)c(C)nc5cc4C)CC3)cc2OC1([2H])[2H] reported=36
compound=[2H]C1(Oc2ccc3c(c2)OCO3)CCN(c2nn3c(=O)cc(C)nc3cc2C)CC1 reported=52
compound=Cc1cc2nccc(=O)n2nc1N1CC[C@H](Oc2cc(F)c3c(c2)OCCO3)C[C@H]1C reported=203
compound=[2H]C1([2H])Oc2ccc(O[C@@H]3CCN(c4nn5c(=O)ccnc5cc4C)C[C@H]3F)cc2OC1([2H])[2H] reported=159
compound=[2H]C1([2H])Oc2ccc(O[C@@H]3CCN(c4nn5c(=O)cc(COC)nc5cc4C)C[C@H]3F)cc2OC1([2H])[2H] reported=87
compound=Cc1ccc(OC2CCN(c3nn4c(=O)cc(C(F)F)nc4c(C)c3C)CC2)cn1 reported=76
compound="Cc1cc2nccc(=O)n2nc1N1CC[C@H](Oc2ccc3c(c2)OCCO3)[C@@H](C)C1 (single isomer, unassigned)" reported=1560
compound=[2H]C1([2H])Oc2ccc(O[C@@H]3CCN(c4nn5c(=O)cc(COC)nc5c(C)c4C)C[C@H]3F)cc2OC1([2H])[2H] reported=101
compound=[2H]C1([2H])Oc2ccc(O[C@H]3CCN(c4nn5c(=O)ccnc5cc4C)[C@H](C)C3)cc2OC1([2H])[2H] reported=81
compound=[2H]C1(Oc2ccc3c(c2)OC([2H])([2H])C([2H])([2H])O3)CCN(c2nn3c(=O)c(F)c(C)nc3cc2C)CC1 reported=22
compound=[2H]C1([2H])Oc2ccc(O[C@H]3CCN(c4nn5c(=O)cc(COC)nc5c(C)c4C)[C@H](C)C3)cc2OC1([2H])[2H] reported=96
compound=[2H]C1([2H])Oc2ccc(O[C@@H]3CCN(c4nn5c(=O)ccnc5cc4C)C[C@@H]3F)cc2OC1([2H])[2H] reported=67
compound=CCc1ccc(OC2CCN(c3nn4c(=O)ccnc4cc3C)CC2)cc1 reported=503
compound=[2H]C1(Oc2ccc3c(c2)OCCO3)CCN(c2nn3c(=O)cc(C(F)F)nc3cc2C)CC1 reported=12
compound=[2H]C1(Oc2ccc3c(c2)OCCO3)CCN(c2nn3c(=O)cc(C)nc3cc2C)CC1 reported=47
compound=[2H]C1(Oc2ccc3c(c2)OC([2H])([2H])C([2H])([2H])O3)CCN(c2nn3c(=O)cc(CC)nc3c(C)c2C)CC1 reported=64
compound=[2H]C1([2H])CC(Oc2ccc3c(c2)OC([2H])([2H])C([2H])([2H])O3)CC([2H])([2H])N1c1nn2c(=O)ccnc2cc1C reported=45
compound=CNc1c(C)c(N2CCC(Oc3ccc4c(c3)OCCO4)CC2)nn2c(=O)ccnc12 reported=556
compound=[2H]C1([2H])Oc2ccc(O[C@@H]3CCN(c4nn5c(=O)cc(C)nc5cc4C)C[C@H]3F)cc2OC1([2H])[2H] reported=16
compound=[2H]C1([2H])Oc2ccc(O[C@@H]3CCN(c4nn5c(=O)cc(COC)nc5c(C)c4C)C[C@@H]3F)cc2OC1([2H])[2H] reported=42
compound="Cc1cc2nccc(=O)n2nc1N1CC[C@@H](Oc2ccc3c(c2)OCCO3)[C@@H](C)C1 (single isomer, unassigned)" reported=110

Ref: patent US11884676B2
